# Lookup of reported EC50 keyed by entry
biological target: human activated kallikrein enzyme (Homo sapiens); assay: Plasma kallikrein inhibition, fluorogenic PFR-AMC substrate, 500 pM activated kallikrein format; type: biochemical; conditions: 500 pM activated kallikrein, 300 uM PFR-AMC, 30 min preincubation, 10 min reaction; read-out: Primary Dose Response Assay: Average EC50
measuredAttribute: EC50

[[record]]
molecule = "O=C(Nc1cc(NCc2cn3cc(C4CC4)cc(N4CCOCC4)c3n2)ncn1)[C@H]1C[C@@H]1c1cccc(Cl)c1"
targetorsystem = "human activated kallikrein enzyme (Homo sapiens)"
obsvalue = "1 to 10 nM"

[[record]]
molecule = "O=C(Nc1cc(NCc2cn3cc(C4CC4)ccc3n2)cc(=O)[nH]1)[C@H]1C[C@@H]1c1cc(Cl)ccn1"
targetorsystem = "human activated kallikrein enzyme (Homo sapiens)"
obsvalue = "< 1 nM"

[[record]]
molecule = "O=C(Nc1cc(OCc2cn3cc(C4CC4)ccc3n2)cnn1)[C@H]1C[C@@H]1c1cccc(Cl)c1 (racemic)"
targetorsystem = "human activated kallikrein enzyme (Homo sapiens)"
obsvalue = "10 to 100 nM"

[[record]]
molecule = "Cc1ccnc([C@H]2C[C@@H]2C(=O)Nc2cc(OCc3cn4cc(C5CC5)cc(N5CC(=O)N(CC(C)(C)O)C5=O)c4n3)nc(C)n2)n1"
targetorsystem = "human activated kallikrein enzyme (Homo sapiens)"
obsvalue = "< 1 nM"

[[record]]
molecule = "CN(c1cc(C2CC2)cn2cc(CNc3ccnc(NC(=O)[C@H]4C[C@@H]4c4cccc(Cl)c4)c3)nc12)S(C)(=O)=O"
targetorsystem = "human activated kallikrein enzyme (Homo sapiens)"
obsvalue = "< 1 nM"

[[record]]
molecule = "O=C1CN(c2cc(C3CC3)cn3cc(CNc4cc(NC(=O)[C@H]5C[C@@H]5c5cccc(Cl)c5)ncn4)nc23)CCN1"
targetorsystem = "human activated kallikrein enzyme (Homo sapiens)"
obsvalue = "1 to 10 nM"


====

target: plasma kallikrein (Homo sapiens); construct: from tissue; assay: Neat human plasma assay, FXIIa contact pathway-activated, PFR-AMC substrate; assay type: biochemical; details: citrated human plasma 78% final, 10 nM human FXIIa, 100 μM PFR-AMC; read-out: Human Plasma Assay: IC90
measuredAttribute: IC90

[[record]]
compound = "O=C(Nc1cc(NCc2cn3cc(C4CC4)cc(COCCO)c3n2)ccn1)[C@H]1C[C@@H]1c1cccc(Cl)c1"
measuredattribute = "IC90"
obsvalue = "1500 to 10000 nM"

[[record]]
compound = "Cc1ccc(C#N)c([C@H]2C[C@@H]2C(=O)Nc2cc(NCc3cn4cc(C5CC5)cc(N5CC(=O)N(C)C5=O)c4n3)ncn2)n1 (racemic)"
measuredattribute = "IC90"
obsvalue = "400 to 1500 nM"

[[record]]
compound = "Cc1ccnc([C@H]2C[C@@H]2C(=O)Nc2cc(SCc3cn4cc(C5CC5)cc(N5CC(=O)N(C)C5=O)c4n3)nc(C)n2)n1"
measuredattribute = "IC90"
obsvalue = "400 to 1500 nM"

[[record]]
compound = "CNCCc1cc(C2CC2)cn2cc(CNc3ccnc(NC(=O)[C@H]4C[C@@H]4c4cccc(Cl)c4)c3)nc12"
measuredattribute = "IC90"
obsvalue = "< 400 nM"

[[record]]
compound = "COCCOCCN1C(=O)CN(c2cc(C3CC3)cn3cc(CNc4cc(NC(=O)[C@H]5C[C@@H]5c5nccc(C)n5)ncn4)nc23)C1=O"
measuredattribute = "IC90"
obsvalue = "< 400 nM"

[[record]]
compound = "Cc1ccnc([C@@H]2[C@@H](C(=O)Nc3cc(NCc4cn5cc(C6CC6)cc(N6CC(=O)N(C)C6=O)c5n4)ncn3)C2(F)F)n1 (racemic)"
measuredattribute = "IC90"
obsvalue = "< 400 nM"

[[record]]
compound = "COCc1nc(NC(=O)[C@H]2C[C@@H]2c2nccc(C)n2)cc(N(C)Cc2cn3cc(C4CC4)cc(N4CC(=O)N(C)C4=O)c3n2)n1"
measuredattribute = "IC90"
obsvalue = "< 400 nM"

[[record]]
compound = "CC(C)c1ccc2nc(CNc3ccnc(NC(=O)[C@H]4C[C@@H]4c4cccc(Cl)c4)c3)cn2c1"
measuredattribute = "IC90"
obsvalue = "10000 to 48000 nM"

[[record]]
compound = "Cc1ccnc([C@H]2C[C@@H]2C(=O)Nc2cc(NCc3cn4cc(C5CC5)cc(N5CCOC5=O)c4n3)ncn2)n1 (racemic) [Example 390]"
measuredattribute = "IC90"
obsvalue = "< 400 nM"

[[record]]
compound = "O=C(Nc1cc(NCc2cn3cc(C4CC4)cc(N4CC(=O)N(C5CC5)C4=O)c3n2)ncn1)[C@H]1C[C@@H]1c1cccc(Cl)c1"
measuredattribute = "IC90"
obsvalue = "1500 to 10000 nM"

[[record]]
compound = "Cc1ccnc([C@H]2C[C@@H]2C(=O)Nc2cc(OCc3cn4cc(C5CC5)cc(N5CC6(COC6)OC5=O)c4n3)nc(C)n2)n1"
measuredattribute = "IC90"
obsvalue = "< 400 nM"

[[record]]
compound = "COC(=O)CCc1cc(C2CC2)cn2cc(CNc3ccnc(NC(=O)[C@H]4C[C@@H]4c4cccc(Cl)c4)c3)nc12"
measuredattribute = "IC90"
obsvalue = "1500 to 10000 nM"

[[record]]
compound = "Cc1ccnc([C@H]2C[C@@H]2C(=O)Nc2cc(OC(C)c3cn4cc(C5CC5)cc(N5CC(=O)N(C)C5=O)c4n3)nc(C)n2)n1 (stereo partly shown)"
measuredattribute = "IC90"
obsvalue = "1500 to 10000 nM"


====

biological target: plasma kallikrein (Homo sapiens, UniProt P03952); construct: from tissue; assay: Neat human plasma assay, FXIIa contact pathway-activated, PFR-AMC substrate; type: biochemical; settings: citrated human plasma 78% final, 10 nM human FXIIa, 100 μM PFR-AMC; read-out: Human Plasma Assay: IC90
Sequence (P03952 391-638 limits assumed): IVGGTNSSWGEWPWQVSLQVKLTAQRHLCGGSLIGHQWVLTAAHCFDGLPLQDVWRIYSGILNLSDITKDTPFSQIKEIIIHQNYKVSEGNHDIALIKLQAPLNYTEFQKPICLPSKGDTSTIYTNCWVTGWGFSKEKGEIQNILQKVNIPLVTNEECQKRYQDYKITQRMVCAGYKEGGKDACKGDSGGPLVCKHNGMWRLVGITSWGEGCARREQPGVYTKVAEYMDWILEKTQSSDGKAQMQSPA
Sequence (P03952 20-390 partner limits assumed): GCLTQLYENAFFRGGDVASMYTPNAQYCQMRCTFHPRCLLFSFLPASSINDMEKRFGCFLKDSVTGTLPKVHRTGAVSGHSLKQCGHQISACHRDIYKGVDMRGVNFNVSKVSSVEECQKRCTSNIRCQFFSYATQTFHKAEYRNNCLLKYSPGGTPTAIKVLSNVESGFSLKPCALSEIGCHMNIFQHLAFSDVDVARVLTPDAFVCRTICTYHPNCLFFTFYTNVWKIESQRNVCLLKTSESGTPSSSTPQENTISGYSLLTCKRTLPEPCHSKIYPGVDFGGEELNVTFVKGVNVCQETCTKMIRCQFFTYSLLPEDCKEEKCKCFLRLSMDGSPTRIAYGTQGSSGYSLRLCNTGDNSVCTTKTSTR
measuredAttribute: IC90

[[record]]
molecule = "CN1C(=O)CN(c2cc(C3CC3)cn3cc([C@H]4C[C@H](O)CN4c4cc(NC(=O)[C@H]5C[C@@H]5c5cccc(Cl)c5)ncn4)nc23)C1=O [Example 480]"
measuredattribute = "IC90"
obsvalue = "< 400 nM"

[[record]]
molecule = "Cc1ccnc([C@H]2C[C@@H]2C(=O)Nc2cc(N3C[C@@H](O)C[C@@H]3c3cn4cc(C5CC5)cc(N5CC(=O)N(C)C5=O)c4n3)ncn2)n1 (relative stereo) [Example 473]"
measuredattribute = "IC90"
obsvalue = "400 to 1500 nM"

[[record]]
molecule = "O=C(Nc1cc(NCc2cn3cc(C4CC4)ccc3n2)ccn1)[C@H]1C[C@@H]1c1cc(Cl)cs1 (racemic) [Example I-219]"
measuredattribute = "IC90"
obsvalue = "10000 to 48000 nM"

[[record]]
molecule = "Cc1ccnc([C@H]2C[C@@H]2C(=O)Nc2cc(N(C)Cc3cn4cc(C5CC5)cc(N5CC(=O)NC5=O)c4n3)nc(C3CC3)n2)n1 [Example 408]"
measuredattribute = "IC90"
obsvalue = "400 to 1500 nM"

[[record]]
molecule = "O=C(Nc1cc(NCc2cn3cc(C4CC4)cc(N4C(=O)C5CCC4C5)c3n2)ccn1)[C@H]1C[C@@H]1c1cccc(Cl)c1 (stereo partly drawn) [Example 92]"
measuredattribute = "IC90"
obsvalue = "1500 to 10000 nM"

[[record]]
molecule = "COc1nc(NC(=O)[C@H]2C[C@@H]2c2nccc(C)n2)cc(OCc2cn3cc(C4CC4)cc(N4CC(=O)N(C)C4=O)c3n2)n1 [Example 556]"
measuredattribute = "IC90"
obsvalue = "400 to 1500 nM"


====

molecular target: human activated kallikrein enzyme (Homo sapiens, UniProt P03952); test: Plasma kallikrein inhibition, fluorogenic PFR-AMC substrate, 500 pM activated kallikrein format; format: biochemical; settings: 500 pM activated kallikrein, 300 uM PFR-AMC, 30 min preincubation, 10 min reaction; read-out: Primary Dose Response Assay: Average EC50
measuredAttribute: EC50

[[record]]
compound = "Cc1ccnc([C@H]2C[C@@H]2C(=O)Nc2cc(N[C@H](C)c3cn4cc(C5CC5)cc(N5CC(=O)N(C)C5=O)c4n3)nc(N(C)C)n2)n1"
targetorsystem = "human activated kallikrein enzyme (Homo sapiens, UniProt P03952)"
obsvalue = "< 1 nM"

[[record]]
compound = "Cc1ccnc([C@H]2C[C@@H]2C(=O)Nc2cc(N[C@H](C)c3cn4cc(C5CC5)cc(N5CC(=O)NC5=O)c4n3)nc(C)n2)n1"
targetorsystem = "human activated kallikrein enzyme (Homo sapiens, UniProt P03952)"
obsvalue = "< 1 nM"

[[record]]
compound = "Cc1ccnc(C2CC2C(=O)Nc2cc(OCc3cn4cc(C5CC5)cc(N5CC(=O)N(C)C5=O)c4n3)c(C(F)(F)F)nn2)n1 (stereo not drawn)"
targetorsystem = "human activated kallikrein enzyme (Homo sapiens, UniProt P03952)"
obsvalue = "< 1 nM"

[[record]]
compound = "Cc1ccc(C#N)c([C@H]2C[C@@H]2C(=O)Nc2cc(NCc3cn4cc(C5CC5)cc(N5CC(=O)N(C)C5=O)c4n3)ncn2)n1 (racemic)"
targetorsystem = "human activated kallikrein enzyme (Homo sapiens, UniProt P03952)"
obsvalue = "< 1 nM"

[[record]]
compound = "N#CC1(c2cccc(Cl)c2)CC1C(=O)Nc1cc(NCc2cn3cc(C4CC4)ccc3n2)ncn1 (stereo not drawn)"
targetorsystem = "human activated kallikrein enzyme (Homo sapiens, UniProt P03952)"
obsvalue = "> 6000 nM"

[[record]]
compound = "O=C(Nc1cc(NCc2cn3cc(C4CC4)cc(N4C(=O)C5CCC4C5)c3n2)ccn1)[C@H]1C[C@@H]1c1cccc(Cl)c1 (stereo partly drawn)"
targetorsystem = "human activated kallikrein enzyme (Homo sapiens, UniProt P03952)"
obsvalue = "< 1 nM"

